target: T1, ZIKV (prM80E) with a C-terminal myc-myc-hexahistidine tag (Zika virus, UniProt A0A024B7W1 104-694); test: SPR, mAb captured, 25C
T1 construct: also called ZIKV (prM80E)-mmH; ZIKV-mmH
# maps each entry to its koff
Don't forget the unit after the number, please.

Reference set (2 entries):
>>> value_measured("H4H25591P (antibody, V domains shown) VH: QVQLVESGGGVVQPGRSLRLSCAASGFTFSYSGMHWVRQAPGKGLEWVAVISYDGINKYYADSVKGRFTISRDNSKNTLYLQMNSLRPEDTAVYYCAKDRGGRFDPWGQGTLVTVSS VL: DIQMTQSPSSLSASVGDRVTITCRASQGISNYLAWYQQKPGKVPNLLIYGASTLHSGVPSRFSGSGSGTDFTLTISSLQPADVATYYCQKYNSAPLTFGGGTKVEIK")
"0.00318 s⁻¹"
>>> value_measured("H4H25641P (antibody, V domains shown) VH: QVQLVESGGGVVQPGRSLRLSCAASGFTFSYYGMHWVRQAPGKGLEWVAVISYDASNNYYVDSVKGRFTISRDNSKNTLYLQMNSLRAEDTAVYYCAKDYGGRFDYWGQGTLVTVSS VL: EIVLTQSPGTLSLSPGERATLSCGASQSVSSYLAWYQQKPGQTPRLLIYGASSRATGIPDRFSGSGSGTDFTLTISRLEPEDFAVYYCQQYGSSPWTFGQGTKVEIK")
"0.00922 s⁻¹"

Below: the item to evaluate.
Name the reported koff value associated with the binder H4H25592P (antibody, V domains shown) VH: QVQLVESGGGVVQPGRSLRLSCAASGFTFSYSGMHWVRQAPGKGLEWVAVISYDGSNKYYADSVKGRFTISRDNSNNILYLQMNSLRAEDTAVYYCAKDWGGRFDPWGQGTLVTVSS VL: DIQMTQSPSSLSASVGDRVTITCRASQGISSYLAWYQQIPGKVPKLLIYAASTLHSGVPSRFSGSGSGTDFTLTISSLQPADVATYYCQKYNSAPLTFGGGTKVEIK
0.000676 s⁻¹
